# STUDY_SYSTEM: T1, PVRIG (FACS-based competition assay of FIGS. 7 and 15) (Homo sapiens, UniProt Q6DKI7)
# T1 construct: made because the format of the assay is only described in U.S. Ser. No. 15/048,967; also called human PVRIG
# T1 sequence (receptor, looked up): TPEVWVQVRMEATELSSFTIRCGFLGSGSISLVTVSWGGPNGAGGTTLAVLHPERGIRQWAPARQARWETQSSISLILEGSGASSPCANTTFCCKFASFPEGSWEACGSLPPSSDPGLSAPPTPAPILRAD
# METHOD: FACS-based competition assay of PVRIG blocking; format and competitor not given
Listed here are binders together with their documented IC50.
Output spec: scalar in nM, unitless text.

Sample CHA.7.524 (antibody, V domains shown) VH: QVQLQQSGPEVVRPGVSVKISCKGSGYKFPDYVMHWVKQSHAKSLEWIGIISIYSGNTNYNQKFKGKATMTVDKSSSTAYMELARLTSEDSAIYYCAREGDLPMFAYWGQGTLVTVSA VL: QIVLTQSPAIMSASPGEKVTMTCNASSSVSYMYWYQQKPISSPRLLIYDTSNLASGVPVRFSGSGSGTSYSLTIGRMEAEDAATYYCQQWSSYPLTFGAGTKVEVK — what was its IC50?
30.2

Next entry: CHA.7.508 (antibody, V domains shown) VH: EVQLQQSGPDLVKPGASMKISCKASGYTFIDYNIHWVKQSQGKSLDWIGYIYPYNGGTGYNQKFKNKATLTVDSSSSTAYMEVRSLTFEDSAVYFCAREADYYGNRGQFDYWGQGTLVTVSA VL: DIQMTQSPASLSVSVGETVTITCRASENIFSNLAWYQQKQGKSPQLLVYGEANLADGVPSRFSGSGSGTQYSLKINSLQSEDFGNYYCQHFWGTPYTFGGGTTLEIK
37.9

Next entry: CHA.7.526 (antibody, V domains shown) VH: QVQLKESGPGLVAPSQSLSITCTVSGFSLTAYNINWVRQPPGKGLEWLGMIWGDGNTDYNSPLKSRLTISKDNSKSQVFLKMDSLQTDDTARYYCARDLKVRRDSPYTMDYWGQGTSVTVSS VL: NIMMTQSPSSLAVSAGEKVTMSCKSSQSVLYSSNQKNYLAWYQQKPGQSPKLLIYWASNRESGVPDRFTGSGSGTDFTLTISSVQAEDLAVYYCHQYLSSYTFGGGTKLEIK
58.9
